biological target: Prostaglandin E2 receptor EP3 subtype (Homo sapiens, UniProt P43115); assay: Antagonist activity at human EP3-2 receptor expressed in CHOK1 cells
Measure: EC50 (nM)
Please give a number only; it is taken to be in nM.

Prompt line: # input compound: Cn1cc(/C=C/C(=O)NS(=O)(=O)c2ccc(F)c(F)c2)c2c(Oc3ccc(Cl)cc3Cl)cccc21 ; wanted: its EC50
Response line: 26.1

----------
pIC50 values, listed per item
target: UniProtKB P35408; assay: Displacement of radioligand from EP4 receptor
Sequence (P35408 whole entry): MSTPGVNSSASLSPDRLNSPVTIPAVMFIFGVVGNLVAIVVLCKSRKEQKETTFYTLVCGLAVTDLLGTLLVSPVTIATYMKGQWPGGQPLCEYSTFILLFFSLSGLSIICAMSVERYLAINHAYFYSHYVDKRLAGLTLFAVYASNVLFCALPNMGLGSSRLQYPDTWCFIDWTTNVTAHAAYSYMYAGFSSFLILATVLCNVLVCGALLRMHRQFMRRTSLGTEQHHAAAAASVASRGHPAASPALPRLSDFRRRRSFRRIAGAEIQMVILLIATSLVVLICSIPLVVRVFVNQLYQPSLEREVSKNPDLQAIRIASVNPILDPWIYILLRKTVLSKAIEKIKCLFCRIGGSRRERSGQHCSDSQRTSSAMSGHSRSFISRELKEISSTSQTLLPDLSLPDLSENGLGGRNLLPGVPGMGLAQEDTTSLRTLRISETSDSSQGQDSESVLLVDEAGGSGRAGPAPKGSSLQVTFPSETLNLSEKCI
On this scale, pIC50 is minus log10 of a concentration expressed in M (mol/L).

[
  {
    "Query smiles": "Cn1cc(/C=C/C(=O)NS(=O)(=O)c2ccc(F)c(F)c2)c2c(Oc3ccc4ccccc4c3)cccc21",
    "pIC50": 4.90
  }
]

Then there is this compound:
Prompt line: # input compound: Cn1cc(/C=C/C(=O)NS(=O)(=O)c2cc(F)c(F)cc2F)c2c(Oc3ccc(Cl)c(F)c3)cccc21 ; wanted: its pIC50
Response line: 5.00

----------
Molecular target: Prostaglandin E2 receptor EP3 subtype (Homo sapiens, UniProt P43115)
Sequence (P43115 whole entry): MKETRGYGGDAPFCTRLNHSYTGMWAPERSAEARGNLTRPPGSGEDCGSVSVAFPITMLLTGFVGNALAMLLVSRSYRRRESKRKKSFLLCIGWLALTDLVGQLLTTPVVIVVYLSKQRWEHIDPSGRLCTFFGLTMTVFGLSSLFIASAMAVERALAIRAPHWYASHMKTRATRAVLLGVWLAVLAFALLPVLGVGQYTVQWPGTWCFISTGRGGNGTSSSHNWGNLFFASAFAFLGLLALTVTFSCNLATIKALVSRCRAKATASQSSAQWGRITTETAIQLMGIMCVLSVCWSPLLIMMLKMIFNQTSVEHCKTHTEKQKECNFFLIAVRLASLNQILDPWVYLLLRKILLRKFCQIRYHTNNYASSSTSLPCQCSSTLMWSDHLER
Test: Displacement of [3H]PGE2 from human EP3 receptor at 20 uM in presence of normal buffer
pIC50 values, listed per item
On this scale, pIC50 is minus log10 of a concentration expressed in M (mol/L).

Worked examples follow.
[
  {
    "Query smiles": "Cn1cc(/C=C/C(=O)NS(=O)(=O)c2cc(F)c(F)cc2F)c2c(Oc3ccc(Cl)cc3Cl)cccc21",
    "Recorded value": 8.49
  },
  {
    "Query smiles": "Cn1cc(/C=C/C(=O)NS(=O)(=O)c2cc(F)c(F)cc2F)c2c(Oc3ccc(F)c(F)c3)cccc21",
    "Recorded value": 8.42
  },
  {
    "Query smiles": "Cn1cc(/C=C/C(=O)NS(=O)(=O)c2ccc(F)c(F)c2)c2c(Oc3cnc4ccccc4n3)cccc21",
    "Recorded value": 8.21
  },
  {
    "Query smiles": "Cn1cc(/C=C/C(=O)NS(=O)(=O)c2ccc(F)c(F)c2)c2c(Oc3ccc(Cl)cc3Cl)cccc21",
    "Recorded value": 7.93
  },
  {
    "Query smiles": "Cn1cc(/C=C/C(=O)NS(=O)(=O)c2ccc(F)c(F)c2)c2c(Oc3ccc(F)cc3Cl)cccc21",
    "Recorded value": 7.86
  },
  {
    "Query smiles": "COc1ccc(S(=O)(=O)NC(=O)/C=C/c2cn(C)c3cccc(Oc4ccc5ccccc5c4)c23)cc1",
    "Recorded value": 7.00
  }
]

Prompt line: # input molecule: Cn1cc(/C=C/C(=O)NS(=O)(=O)c2ccc(F)c(F)c2)c2c(Oc3ccc(Cl)cc3)cccc21 ; wanted: its pIC50
Response line: 7.56

Prompt line: # input molecule: Cn1cc(/C=C/C(=O)NS(=O)(=O)c2ccc(Cl)cc2Cl)c2c(Oc3ccc4ccccc4c3)cccc21 ; wanted: its pIC50
Response line: 7.27

Prompt line: # input molecule: Cn1cc(/C=C/C(=O)NS(=O)(=O)c2ccc(F)c(F)c2)c2c(Oc3ccc(F)c(Cl)c3)cccc21 ; wanted: its pIC50
Response line: 7.57

Prompt line: # input molecule: Cn1cc(/C=C/C(=O)NS(=O)(=O)c2cc(Cl)c(Cl)s2)c2c(Oc3ccc4ccccc4c3)cccc21 ; wanted: its pIC50
Response line: 8.34

Prompt line: # input molecule: Cn1cc(/C=C/C(=O)NS(=O)(=O)c2ccccc2F)c2c(Oc3ccc4ccccc4c3)cccc21 ; wanted: its pIC50
Response line: 7.92

Prompt line: # input molecule: Cn1cc(/C=C/C(=O)NS(=O)(=O)c2cc(F)c(F)cc2F)c2c(Oc3ccc(F)cc3F)cccc21 ; wanted: its pIC50
Response line: 7.07

Prompt line: # input molecule: Cn1cc(/C=C/C(=O)NS(=O)(=O)c2ccc(F)c(F)c2)c2c(Oc3ccc4ccccc4c3)cccc21 ; wanted: its pIC50
Response line: 8.13

Prompt line: # input molecule: Cn1cc(/C=C/C(=O)NS(=O)(=O)c2ccc(F)c(F)c2)c2c(Oc3ccc4ncccc4c3)cccc21 ; wanted: its pIC50
Response line: 8.72

Prompt line: # input molecule: Cn1cc(/C=C/C(=O)NS(=O)(=O)c2cc(F)c(F)cc2F)c2c(Oc3ccc(Cl)c(F)c3)cccc21 ; wanted: its pIC50
Response line: 8.17

Prompt line: # input molecule: Cn1cc(/C=C/C(=O)NS(=O)(=O)c2c(F)cccc2F)c2c(Oc3ccc4ccccc4c3)cccc21 ; wanted: its pIC50
Response line: 8.23

Prompt line: # input molecule: Cn1cc(/C=C/C(=O)NS(=O)(=O)c2cc(F)c(F)cc2F)c2c(Oc3ccc4ccccc4c3)cccc21 ; wanted: its pIC50
Response line: 8.04

Hello, the source for this data is ChEMBL document CHEMBL1153263, in case you need it.
